- Study Target: full-length beta-Catenin (Uniprot ID P35222) (Homo sapiens)
- Construct: 10 nM full-length beta-Catenin (Uniprot ID P35222)
- Sequence (P35222 whole entry): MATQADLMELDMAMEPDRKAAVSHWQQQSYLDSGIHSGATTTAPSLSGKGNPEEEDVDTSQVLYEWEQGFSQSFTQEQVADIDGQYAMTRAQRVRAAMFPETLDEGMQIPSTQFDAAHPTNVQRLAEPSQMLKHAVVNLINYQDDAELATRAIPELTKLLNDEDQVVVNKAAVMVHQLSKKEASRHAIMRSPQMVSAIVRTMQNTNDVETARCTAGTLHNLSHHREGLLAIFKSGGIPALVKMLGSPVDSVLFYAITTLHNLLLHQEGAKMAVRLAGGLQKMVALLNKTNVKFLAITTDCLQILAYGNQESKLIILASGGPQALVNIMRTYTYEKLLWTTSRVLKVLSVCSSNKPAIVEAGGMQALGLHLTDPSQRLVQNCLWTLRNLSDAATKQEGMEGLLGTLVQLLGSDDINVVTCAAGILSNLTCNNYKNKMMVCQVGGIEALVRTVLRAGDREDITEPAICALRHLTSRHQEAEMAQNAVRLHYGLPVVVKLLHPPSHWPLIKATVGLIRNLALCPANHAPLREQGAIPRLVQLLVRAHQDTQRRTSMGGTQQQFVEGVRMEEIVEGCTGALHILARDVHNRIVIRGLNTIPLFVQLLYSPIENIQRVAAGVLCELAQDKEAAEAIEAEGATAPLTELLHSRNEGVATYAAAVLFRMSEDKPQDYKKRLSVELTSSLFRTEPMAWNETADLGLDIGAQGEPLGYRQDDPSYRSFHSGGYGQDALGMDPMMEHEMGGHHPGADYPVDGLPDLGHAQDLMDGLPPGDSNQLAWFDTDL
- Test Method Notes: Fluorescence polarization IC50 (beta-catenin / 5FAM-TCF4 10-53 competition)
- Type: binding
- Test Context: fluorescence polarization; read-out: beta-Catenin FP IC50
Experimental Endpoint: pIC50
Formally, pIC50 is defined as -log10 of the concentration c, with c in mol/L.

Q: # pIC50 lookup, item CC(=O)N1CCC[C@]12CC=CCCCC1(CCCC=CCCCOC(=O)N3CC[C@@](C(=O)N[C@@H](Cc4ccccc4C(F)(F)F)C(=O)N[C@@H](Cc4csc5ccccc45)C(=O)N[C@@H](CCC(N)=O)C(=O)N[C@@H](CC(C)C)C(=O)NC(C)(C)C(N)=O)(C3)NC(=O)[C@H](CC(C)C)NC(=O)[C@H](Cc3ccccc3)NC(=O)[C@H](C)NC(=O)[C@H](C)NC(=O)[C@H](Cc3cccc(C(=O)O)c3)NC(=O)[C@H](CC(=O)O)NC1=O)NC(=O)[C@H](CC(C)(C)C)NC(=O)[C@H](CC(=O)O)NC2=O (stereo partly shown)
Ans: 7.12

// provenance: patent US20240116985A1
